The reported numbers originate from patent US9932329B2.

I'd appreciate it if you could supply pIC50 values for the items below.
Target: RLK (Homo sapiens (Human))
Sequence (P42681 whole entry): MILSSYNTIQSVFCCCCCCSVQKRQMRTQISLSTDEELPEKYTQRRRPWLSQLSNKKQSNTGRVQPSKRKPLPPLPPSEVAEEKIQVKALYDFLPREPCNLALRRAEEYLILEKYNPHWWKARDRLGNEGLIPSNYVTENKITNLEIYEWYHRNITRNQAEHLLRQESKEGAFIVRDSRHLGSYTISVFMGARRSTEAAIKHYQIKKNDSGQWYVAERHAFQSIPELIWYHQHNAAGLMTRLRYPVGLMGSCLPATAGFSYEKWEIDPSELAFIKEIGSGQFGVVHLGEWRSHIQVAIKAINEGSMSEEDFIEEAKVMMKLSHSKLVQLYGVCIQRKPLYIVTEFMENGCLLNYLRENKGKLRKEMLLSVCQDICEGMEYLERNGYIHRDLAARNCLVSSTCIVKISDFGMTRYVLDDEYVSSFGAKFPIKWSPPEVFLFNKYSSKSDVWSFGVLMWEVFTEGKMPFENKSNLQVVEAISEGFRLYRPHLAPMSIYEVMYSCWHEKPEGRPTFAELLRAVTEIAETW
Test: Inhibition of RLK enzymatic activity, Caliper assay
Assay type: biochemical
Conditions: ATP at Km (100 μM), 15 min pre-incubation, 3 h reaction
Give bare numbers, as −log10 of the molar value.

[
  {
    "MOLECULE": "C=CC(=O)N1CCC[C@@H]1Cn1c(NC(=O)c2ccc(-c3cnco3)s2)nc2cc(CN[C@@H](C)CO)ccc21",
    "MEASURED_TARGET": "RLK (Homo sapiens (Human))",
    "pIC50": 9.52
  }
]

Go through the items and report each one's pIC50.
1. C=CC(=O)N1CCC[C@@H]1Cn1c(NC(=O)c2ccc(-c3cnco3)s2)nc2cc(CN[C@@H](CO)C(C)(C)C)ccc21
2. C=CC(=O)N1CCC[C@@H]1Cn1c(NC(=O)c2ccc(-c3cnco3)s2)nc2cc(CN[C@H](C)CO)ccc21
3. C[C@H](NCc1ccc2c(c1)nc(NC(=O)c1ccc(-c3cnco3)s1)n2C[C@H]1CCCN1C(=O)C(C#N)=CC(C)(C)C)C(C)(C)C

Result:
1: 9.30; 2: 9.52; 3: 8.92

Give pIC50 for each listed item.
1. C=CC(=O)N1CCC[C@@H]1Cn1c(NC(=O)c2ccc(-c3cnco3)s2)nc2cc(CNCC3CC3)ccc21
2. COCC(C)NCc1ccc2c(c1)nc(NC(=O)c1ccc(-c3cnco3)s1)n2C[C@H]1CCCN1C(=O)C(C#N)=CC(C)(C)C (some centres unmarked)

Result:
1. 9.52
2. 8.68

Please go through the list and note pIC50 for each molecule.
1. CC(C)(C)C=C(C#N)C(=O)N1CCC[C@@H]1Cn1c(NC(=O)c2ccc(-c3cnco3)s2)nc2cc(CO)ccc21
2. C=CC(=O)N1CCC[C@@H]1Cn1c(NC(=O)c2ccc(-c3cnco3)s2)nc2cc(CN[C@H](CO)C(C)(C)C)ccc21

Result:
[8.92, 9.70]

###

Target: RLK (Homo sapiens (Human))
Assay: Inhibition of RLK enzymatic activity, Caliper assay
Format: biochemical
PARAMETER: IC50 (nM)
Answers are plain numbers, in nM.

Q: Can you look up the measured IC50 of "C[C@H](NCc1ccc2c(c1)nc(NC(=O)c1ccc(C(F)F)s1)n2C[C@H]1CCCN1C(=O)C(C#N)=CC(C)(C)C)C(C)(C)C" for me?
Result: 1
